Multi-source literature compilation: pIC50 on UniProt P30872.
Sequence (P30872 whole entry): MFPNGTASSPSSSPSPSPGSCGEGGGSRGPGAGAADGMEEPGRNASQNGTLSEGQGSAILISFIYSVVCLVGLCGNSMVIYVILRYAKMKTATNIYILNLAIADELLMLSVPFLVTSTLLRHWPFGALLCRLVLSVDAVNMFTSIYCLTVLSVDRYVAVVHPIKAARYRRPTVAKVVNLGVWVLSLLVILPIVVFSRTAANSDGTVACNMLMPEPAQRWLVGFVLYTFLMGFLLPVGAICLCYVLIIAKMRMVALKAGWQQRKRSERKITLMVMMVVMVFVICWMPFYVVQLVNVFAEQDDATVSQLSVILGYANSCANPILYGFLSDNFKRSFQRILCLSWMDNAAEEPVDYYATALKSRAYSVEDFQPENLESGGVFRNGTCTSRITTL
# pIC50 = -log10(concentration in molar units)

Problem: Report pIC50 for C[C@@H](O)[C@@H]1NC(=O)[C@H](CCCCN)NC(=O)[C@@H](Cc2c[nH]c3ccccc23)NC(=O)[C@H](Cc2ccccc2)NC(=O)[C@H](Cc2ccccc2)NC(=O)[C@@H](NC(N)=O)CSSC[C@@H](C(=O)O)NC(=O)[C@H](Cc2ccc(O)cc2)NC1=O (stereo in doubt) please.
Solution: 7.26

Problem: Another compound: `CC(C)[C@@H]1NC(=O)[C@H](CCCCN)NC(=O)[C@@H](Cc2c[nH]c3ccccc23)NC(=O)[C@H](Cc2ccc(O)cc2)NC(=O)[C@@H](C)N(C)C(=O)[C@H](Cc2ccccc2)NC1=O`
Solution: 6.00

Problem: Another compound: C[C@@H](O)[C@@H]1NC(=O)[C@H](CCCCN)NC(=O)[C@@H](Cc2c[nH]c3ccccc23)NC(=O)[C@H](Cc2ccccc2)NC(=O)[C@H](Cc2ccccc2)NC(=O)[C@@H](N)CSSC[C@@H](C(=O)O)NC(=O)[C@H](Cc2ccc(O)cc2)NC1=O (stereo in doubt)
Solution: 7.99

Problem: Another compound: `CC(=O)N[C@@H]1CSS[C@H](C(=O)O)NC(=O)[C@H](Cc2ccccc2)NC(=O)[C@H]([C@@H](C)O)NC(=O)[C@H](CCCCN)NC(=O)[C@@H](Cc2c[nH]c3ccccc23)NC(=O)[C@H](Cc2ccccc2)NC(=O)[C@H](Cc2ccccc2)NC1=O`
Solution: 6.27

Problem: Another compound: `CC(C)NCc1ccc(C[C@@H]2NC(=O)[C@@H](Cc3ccc4ccccc4c3)NC(=O)[C@H](Cc3ccccc3)NC(=O)[C@H](Cc3ccccc3)NC(=O)[C@H](CCCCN)NC(=O)[C@@H](N)CSSC[C@@H](C(=O)O)NC(=O)[C@H](CO)N(C)C(=O)[C@H]([C@@H](C)O)NC(=O)[C@H](Cc3ccccc3)NC(=O)[C@H]([C@@H](C)O)NC2=O)cc1`
Solution: 7.15

Problem: Another compound: `C[C@H](c1ccc2ccccc2c1)[C@@H]1NC(=O)[C@H](Cc2ccc(O)cc2)NC(=O)[C@H](Cc2ccccc2)NC(=O)[C@@H](N)CSSC[C@@H](C(=O)O)NC(=O)[C@H](Cc2ccccc2)NC(=O)[C@H]([C@@H](C)O)NC(=O)[C@H](CCCCN)NC1=O`
Solution: 6.39

Problem: Another compound: `CC(C)NCc1ccc(C[C@@H]2NC(=O)[C@@H](Cc3c[nH]c4ccccc34)NC(=O)[C@H](Cc3ccccc3)NC(=O)[C@H](Cc3ccccc3)NC(=O)[C@H](CCCCN)NC(=O)[C@@H](N)CSSC[C@@H](C(=O)N[C@@H](CCCCN)C(=O)N[C@@H](CCCCN)C(=O)O)NC(=O)[C@H](CO)N(C)C(=O)[C@H]([C@@H](C)O)NC(=O)[C@H](Cc3ccccc3)NC(=O)[C@H]([C@@H](C)O)NC2=O)cc1`
Solution: 7.28

Problem: Another compound: `CC(C)[C@@H]1NC(=O)[C@H](CCCCN)NC(=O)[C@@H](Cc2c[nH]c3ccccc23)NC(=O)[C@H](Cc2ccc(O)cc2)NC(=O)[C@H](NC(=O)[C@H](N)Cc2ccccc2)C(C)(C)SSC[C@@H](C(=O)N[C@H](C(N)=O)[C@@H](C)O)NC1=O`
Solution: 6.00

Problem: Another compound: `CC(C)NCc1ccc(C[C@@H]2NC(=O)[C@@H](Cc3c[nH]c4ccccc34)NC(=O)[C@H](Cc3ccc(O)cc3)NC(=O)[C@H](Cc3ccccc3)NC(=O)[C@H](CCCCN)NC(=O)[C@@H](N)CSSC[C@@H](C(=O)O)NC(=O)[C@H](CO)NC(=O)[C@H]([C@@H](C)O)NC(=O)[C@H](Cc3ccccc3)NC(=O)[C@H]([C@@H](C)O)NC2=O)cc1`
Solution: 6.28
